What ΔTm was measured for each of the following?
ASSAYED SYSTEM: Mitogen-activated protein kinase 1 (Homo sapiens)
ASSAY CONDITIONS: Compound concentration 20.0 uM
Description: Thermal Shift Assay. Domain: start/stop: M1-S360

Qu. Please report the measured ΔTm for N=C(N)SCc1ccc(CN2C(=O)C(=O)c3cc(C(F)(F)F)ccc32)cc1
Ans. 0.42 °C

Qu. // fetch ΔTm given entry CCC(=O)N1CCOc2c(cc(-c3cc(OC)cc(OC)c3)cc2C(=O)N[C@H]2CCCN(C)C2)C1
Ans. 0.1 °C

Qu. Assign ΔTm to the following record: CCOc1ccc(Cc2cc([C@@H]3O[C@H](CO)[C@@H](O)[C@H](O)[C@H]3O)ccc2Cl)cc1
Ans. 0.08 °C

Qu. Entry CCC1CCCCN1C(=O)n1ncc(C(O)(c2ccccc2)c2ccccc2)n1 (centres undefined) needs its ΔTm filled in; supply it.
Ans. 0.16 °C

Qu. Identify measured ΔTm associated with CN(Cc1ccccc1)c1ccc2cc(C(=O)O)c(=O)oc2c1
Ans. 0.54 °C

Qu. Input CCCOc1ccc(CCc2nc3cc(-c4c(C)noc4C)ccc3n2CCN2CCOCC2)cc1 , output reported ΔTm.
Ans. 0.33 °C

Qu. Return ΔTm (reported value) for this compound: NCCCOc1cc2ccccc2cc1C(=O)NCCOc1cc2ccccc2cc1C(=O)Nc1ccc(Cl)cc1O
Ans. -1.61 °C

Qu. Report ΔTm, nothing else, for this compound: CC#C[C@]1(O)CC[C@H]2[C@@H]3CCC4=CC(=O)CCC4=C3[C@@H](c3ccc(N(C)C)cc3)C[C@@]21C
Ans. -0.7 °C

Qu. Could you please provide reported ΔTm for CC(C)(C)NS(=O)(=O)c1ccc(NC(=O)[C@H](Cc2ccccc2)NC(=O)c2ccc(F)cc2)cc1 ? Thanks!
Ans. -3.67 °C

###

ASSAYED SYSTEM: Bromodomain-containing protein 4 (Homo sapiens)
ASSAY CONDITIONS: Compound concentration 20.0 uM
Assign classes using reported ΔTm values and the ranges group A = under -3 °C, group B = from -3 °C up to -2 °C, group C = -2 °C and over, please.

Qu. Class for CC(c1cccc2ccccc12)n1cnc2c(=O)[nH]c(Cc3ccccc3)nc21 (stereo unspecified) ?
Ans. group A

Qu. Using the reported ΔTm, which band applies to C[C@H]1CCCN1Cc1nc2cc(NC(=O)c3ccc4c(cnn4C)c3)ccc2[nH]1 ?
Ans. group C

Qu. Band for the recorded ΔTm of CCNC(=O)c1noc(-c2cc(C(C)C)c(O)cc2O)c1-c1ccc(CN2CCOCC2)cc1 ?
Ans. group C

Qu. Exercise: read the entry O=C(O)/C(S)=C/c1ccc(I)cc1 and state which class it falls under.
Ans. group A

Qu. Entry N#Cc1ccc(-c2c3n(c4cccnc24)CCN(C2CC2)C3=O)cc1F belongs to which category?
Ans. group A

Qu. Which category does the recorded ΔTm put O=C(NO)c1cnc(NC2(c3ccccc3)CC2)nc1 in?
Ans. group C

Qu. Class? Entry: COc1ccc([C@@H]2CNC(=O)C2)cc1OC1CCCC1
Ans. group A

Qu. Into which category would you place COc1ccc2nc3[nH]nc(C)c3c(NCCOCCO)c2c1 ?
Ans. group C

Qu. Looking at O=C(Nc1c[nH]nc1C(=O)NC1CCNCC1)c1cc(F)cc(F)c1 , which class would you pick?
Ans. group C

Qu. Class for CCN(c1cc(-c2ccc(CN3CCOCC3)cc2)cc(C(=O)NCc2c(C)cc(C)[nH]c2=O)c1C)C1CCOCC1 ?
Ans. group C

Qu. State the band of CCn1ncc2c(NC3CCOCC3)c(-c3nnc(Cc4sc(C)nc4C)o3)cnc21
Ans. group C

Qu. Assign a category based on measured ΔTm for CS(=O)(=O)N1CCN(C(=O)c2cnc3ccc(F)cc3c2-c2ccc(C3(C#N)CC3)cc2)CC1 and give only the class name.
Ans. group C

Qu. Note: place this compound into its band. Item: CNCCCN1c2ccccc2CCc2ccccc21
Ans. group B

Qu. Class? Entry: Cc1cc(OCc2nnc(SC3CCCC3)n2-c2cccnc2)ccc1-c1ccc(S(C)(=O)=O)cc1
Ans. group B

Qu. Where would CCCC1O[C@@H]2C[C@H]3[C@@H]4CCC5=CC(=O)C=C[C@]5(C)[C@H]4[C@@H](O)C[C@]3(C)[C@]2(C(=O)CO)O1 (stereo partly specified) land among the classes by reported ΔTm?
Ans. group C

Qu. Category lookup for the compound CCCN(CCC)c1ccc(C=O)cc1Br
Ans. group B

Qu. Exam item: assign CC(=O)O[C@]1(C(C)=O)CC[C@H]2[C@@H]3CCC4=CC(=O)CCC4=C3[C@@H](c3ccc(N(C)C)cc3)C[C@@]21C to the correct category.
Ans. group B

Qu. Form field 'band' for CCNC(=O)NCCSC[C@H]1O[C@@H](n2cnc3c(N)ncnc32)[C@H](O)[C@@H]1O
Ans. group C

###

ASSAYED SYSTEM: Transcription intermediary factor 1-alpha (Homo sapiens) (UniProt O15164)
Sequence (whole entry): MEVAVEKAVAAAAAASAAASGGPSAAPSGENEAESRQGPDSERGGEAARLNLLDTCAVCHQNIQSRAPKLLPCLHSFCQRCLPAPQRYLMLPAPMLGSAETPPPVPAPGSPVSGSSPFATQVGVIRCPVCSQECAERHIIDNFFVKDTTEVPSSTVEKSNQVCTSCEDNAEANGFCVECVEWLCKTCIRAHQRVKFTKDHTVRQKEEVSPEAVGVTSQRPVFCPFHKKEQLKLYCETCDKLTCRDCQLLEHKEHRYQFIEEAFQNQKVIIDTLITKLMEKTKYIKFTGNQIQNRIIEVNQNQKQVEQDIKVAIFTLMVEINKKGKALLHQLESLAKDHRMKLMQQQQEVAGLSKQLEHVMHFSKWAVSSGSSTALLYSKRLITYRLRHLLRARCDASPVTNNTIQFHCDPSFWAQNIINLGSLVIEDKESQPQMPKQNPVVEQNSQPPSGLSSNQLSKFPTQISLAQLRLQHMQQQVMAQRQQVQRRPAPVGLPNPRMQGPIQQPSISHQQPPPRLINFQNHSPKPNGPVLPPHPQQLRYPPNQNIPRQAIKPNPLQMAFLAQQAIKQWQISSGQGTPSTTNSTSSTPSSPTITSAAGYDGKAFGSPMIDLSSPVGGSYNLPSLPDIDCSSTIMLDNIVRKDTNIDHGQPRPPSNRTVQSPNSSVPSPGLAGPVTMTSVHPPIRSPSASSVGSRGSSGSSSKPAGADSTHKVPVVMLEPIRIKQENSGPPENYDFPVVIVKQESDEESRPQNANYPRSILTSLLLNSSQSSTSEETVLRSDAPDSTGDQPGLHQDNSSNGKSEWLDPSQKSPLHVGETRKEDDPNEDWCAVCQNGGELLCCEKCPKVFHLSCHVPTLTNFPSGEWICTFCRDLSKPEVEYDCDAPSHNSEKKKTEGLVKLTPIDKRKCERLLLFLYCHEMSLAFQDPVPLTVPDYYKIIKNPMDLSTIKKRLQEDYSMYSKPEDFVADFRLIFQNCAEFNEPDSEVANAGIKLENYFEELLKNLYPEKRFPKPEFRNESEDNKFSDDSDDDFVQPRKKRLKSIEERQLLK
ASSAY CONDITIONS: Compound concentration 20.0 uM
Residues, ends and D or L forms follow the SMILES beside them. *: point of attachment. Cbz = O=C(OCc1ccccc1)*; CH2F = FC*
// class assignment uses ΔTm with these ranges: LOW: < -1 °C; MID: ≥ -1 °C and < -0.1 °C; HIGH: ≥ -0.1 °C

Qu. // return the class label for Cc1ncsc1-c1ccc([C@H](C)NC(=O)[C@@H]2C[C@@H](O)CN2C(=O)[C@@H](NC(=O)CNC(=O)c2ccc(F)c(-c3ccc(N4C[C@@H](C)N(C)[C@@H](C)C4)c(NC(=O)c4c[nH]c(=O)cc4C(F)(F)F)c3)c2)C(C)(C)C)cc1
Ans. HIGH

Qu. Which of the defined bands does the recorded ΔTm of CC1(NC(=O)COc2cccc(-c3nc4c(c(Nc5ccc(-c6cn[nH]c6)cc5)n3)CN(C3CCC3)CC4)c2)CC1 sit within?
Ans. MID

Qu. Kindly identify the class of CCCCN(Cc1ccc(C(=O)NO)cc1)C(=O)Nc1ccccc1 .
Ans. LOW

Qu. # bin lookup: classify CN1Cc2c(Cl)cc(Cl)cc2[C@H](c2cccc(S(=O)(=O)NCCOCCOCCNC(=O)NCCCCNC(=O)NCCOCCOCCNS(=O)(=O)c3cccc([C@@H]4CN(C)Cc5c(Cl)cc(Cl)cc54)c3)c2)C1 by its ΔTm
Ans. MID

Qu. For this compound, which bin applies? N#Cc1cc2cc(CN3CCC(Nc4ncnc5sc(CC(F)(F)F)cc45)CC3)ccc2[nH]1
Ans. HIGH

Qu. Given Cc1noc(C)c1-c1cc(Cl)c(Nc2ccccc2C(=O)O)c(Cl)c1 , name the class its ΔTm places it in.
Ans. LOW

Qu. Which of the defined bands does the recorded ΔTm of O=C(Nc1c(Cl)cncc1Cl)c1ccc(OC(F)F)c(OCC2CC2)c1 sit within?
Ans. HIGH

Qu. Which class does CC(=O)C(=Cc1cc(O)c(O)c([N+](=O)[O-])c1)C(C)=O fall in?
Ans. HIGH

Qu. Bin this entry: COc1ccccc1C(=O)Nc1cc2c(cc1N1CCNC[C@H]1C)n(C)c(=O)n2C
Ans. HIGH

Qu. Could you tell me which band CNC(=O)N1CCc2c(c(N3CCCc4cc(-c5cnn(C)c5)c(C(F)F)cc43)nn2C2CCOCC2)C1 belongs to?
Ans. LOW

Qu. For COc1cccc(Nc2c(C(N)=O)cnc3c(C)cc(S(=O)(=O)c4cccc(C(=O)N(C)C)c4)cc23)c1 , which ΔTm bin applies?
Ans. MID

Qu. Place this compound in its band: Cc1cc(/N=N/c2ccc(S(=O)(=O)Nc3ccccn3)cc2)c(N)cc1O
Ans. HIGH

Qu. Kindly identify the class of C[C@H](NC(=O)c1cn(C2(C#N)CC2)cn1)C(=O)Nc1nc(-c2cccc(-c3ccn(C)n3)c2)cs1 .
Ans. MID

Qu. Entry Cc1cc(C)c(CNC(=O)c2cc(Cl)c3c(c2C)O[C@@](C)([C@H]2CC[C@H](N(C)C)CC2)O3)c(=O)[nH]1 belongs to which category?
Ans. LOW

Qu. State the class of the compound shown: Cc1cc(/N=N/c2ccc3c(c2)CCC(=O)N3)c(N)cc1O
Ans. MID

Qu. Categorize the following entry: CN1CCc2c(n(Cc3ccc(C(=O)NO)cc3)c3ccccc23)C1
Ans. LOW

Qu. Class label required: CCCCCCNC(=O)n1cc(Cl)c(=O)n(C(=O)OCC(C)C)c1=O
Ans. HIGH

Qu. # classify by ΔTm band: O=C(c1cc(Cc2n[nH]c(=O)c3ccccc23)ccc1F)N1CCn2nc(C(F)(F)F)nc2C1
Ans. MID

Qu. In plain terms, what class is CN1CC(=O)N2[C@H](c3ccc4c(c3)OCO4)c3[nH]c4ccccc4c3C[C@@H]2C1=O ?
Ans. MID

Qu. Consider CCC(=O)N1CCOc2c(cc(-c3cc(OC)cc(OC)c3)cc2C(=O)N[C@H]2CCCN(C)C2)C1 . To which ΔTm class does it belong?
Ans. LOW

Qu. Form field 'band' for Cc1cc(C)cc(Oc2ccc(CNC(=O)[C@H](C)N)cc2C)c1
Ans. LOW

Qu. Note: place this compound into its band. Item: CC(=O)N[C@@H](CC(=O)O)C(=O)N[C@@H](CCC(=O)O)C(=O)N[C@H](C(=O)N[C@H](C=O)CC(=O)O)C(C)C
Ans. LOW

Qu. Hi there! Could you help me figure out the category for CS(=O)(=O)c1ccc(Oc2cc(F)cc(C#N)c2)c2c1C(O)C(F)C2 (stereo not drawn) please?
Ans. MID

Qu. Which ΔTm band matches Cc1ncsc1-c1ccc([C@H](C)NC(=O)[C@@H]2C[C@@H](O)CN2C(=O)[C@@H](NC(=O)COCCCOCCNC(=O)C[C@@H]2N=C(c3ccc(Cl)cc3)c3c(sc(C)c3C)-n3c(C)nnc32)C(C)(C)C)cc1 ?
Ans. LOW

Qu. Lab log: COc1cc(Nc2ncc(F)c(Nc3ccc4c(n3)N(COP(=O)(O)O)C(=O)C(C)(C)O4)n2)cc(OC)c1OC — assign ΔTm category
Ans. LOW

Qu. State the class of the compound shown: COc1ccc(C(=O)N[C@H](C(=O)N2CCC[C@H]2C(=O)N[C@H](C(=O)C(F)(F)F)C(C)C)C(C)C)cc1
Ans. HIGH

Qu. Hi there! Could you help me figure out the category for Cc1nc(F)ccc1-c1cc(Cn2ccn(C)c2=N)cc(C(=O)NCc2ccc(Cl)c(Cl)c2)c1 please?
Ans. LOW

Qu. For this compound, which bin applies? CCc1nc2c(C)cc(N3CCN(CC(=O)N4CC(O)C4)CC3)cn2c1N(C)c1nc(-c2ccc(F)cc2)c(C#N)s1
Ans. HIGH

Qu. Kindly identify the class of COC(=O)CC[C@H](NC(=O)[C@H](C)NC(=O)OCc1ccccc1)C(=O)N[C@H](C(=O)N[C@@H](CC(=O)OC)C(=O)CF)C(C)C (Cbz-AE(OMe)VD(OMe)-CH2F) .
Ans. LOW

Qu. Looking at NC(=O)c1cccc(NC(=O)CCC(=O)NCCc2cn(CCNS(=O)(=O)c3cccc(C(=O)O)c3)nn2)c1 , which class would you pick?
Ans. MID

Qu. Category of O=C(C1CC1)N1CCN(Cn2sc3ccccc3c2=O)CC1 :
Ans. HIGH
